meta.source: PubChem BioAssay AID330

tested on: P388 leukemia ip, CD2F1 mice, survival T/C; assay: NCI In Vivo Anticancer Drug Screen. Data for tumor model P388 Leukemia (intraperitoneal) in CD2F1 (CDF1) mice; settings: endpoint: median survival time; dose: 50.0 mg/kg/injection; schedule: Q01DX005 (ip); vehicle: Klucel (hydroxypropylcellulose) (HPC); higher = longer survival
Toxic doses and inconclusive results are not listed.
Examples of molecules with documented T/C follow.

Some solved entries appear below for comparison.
O=C1c2ccccc2C(=O)N1CC#CC[N+]1([O-])CCc2ccccc2C1 (configuration not stated)	103 % of control
Cc1c[nH]c2nc(C)n(-c3ccc(Cl)cc3)c(=N)c12	103 % of control
NC(=S)N/N=C/Cn1ccc(=O)[nH]c1=O	100 % of control
CCCn1c(C)nc2c(N)cc(Cl)cc21	103 % of control
O=C(C[N+]12CN3CN(CN(C3)C1)C2)c1ccc2c(c1)CCCC2	100 % of control

Enquiry: Return reported T/C for target or system P388 leukemia ip, CD2F1 mice, survival T/C, item CCOc1ccc(C(/C(Cl)=N/O)C(Cl)(Cl)Cl)cc1 (configuration not stated) .
Return: 100 % of control

Enquiry: Enter T/C (test system P388 leukemia ip, CD2F1 mice, survival T/C) for CC1CCC(C(C)C)C(NC(=O)c2ccncc2)C1 (configuration not stated)
Return: 100 % of control

Enquiry: Tell me its T/C on P388 leukemia ip, CD2F1 mice, survival T/C: O=c1ccn(C2OC(COC(c3ccccc3)(c3ccccc3)c3ccccc3)C(O)C2OC(c2ccccc2)(c2ccccc2)c2ccccc2)c(=O)[nH]1 (configuration not stated)
Return: 99 % of control

Enquiry: State, for P388 leukemia ip, CD2F1 mice, survival T/C, measured T/C of the molecule listed here: "CCOC(=O)N1Cc2cc3ncccc3nc2C1"
Return: 100 % of control

Enquiry: Lab note: P388 leukemia ip, CD2F1 mice, survival T/C assay, enter T/C for "FC(F)(F)C1(C(F)(F)F)O[P+](c2ccccc2)(c2ccccc2)c2ccccc21" here
Return: 100 % of control

Enquiry: Using P388 leukemia ip, CD2F1 mice, survival T/C as the test system, report measured T/C of O=C(NC(Cc1ccc(Br)cc1)C(=O)O)c1ccc(I)cc1 (configuration not stated) .
Return: 98 % of control

Enquiry: For P388 leukemia ip, CD2F1 mice, survival T/C, give T/C of the listed molecule: COC(=O)Nc1c2c(nc3ccccc13)-c1ccccc1C(C)(C)C2OC (configuration not stated)
Return: 99 % of control

====

tested on: P388 leukemia ip, CD2F1 mice, survival T/C; test: NCI In Vivo Anticancer Drug Screen. Data for tumor model P388 Leukemia (intraperitoneal) in CD2F1 (CDF1) mice; conditions: endpoint: median survival time; dose: 50.0 mg/kg/injection; schedule: Q01DX009 (ip); vehicle: saline with Tween-80
Toxic doses and inconclusive results are not listed. Rule for the calls: active = survival T/C of 150% or more; inactive = T/C below 125% in these data.
Answer with one of the outcomes given here: active, inactive

The following molecules have reported results that may help.
CCC[CH2][Sn][Cl]	inactive
CN1CCC(CN2c3ccccc3Sc3ccccc32)CC1	inactive
COC(=O)c1[nH]c(=O)[nH]c(=O)c1F	inactive

Enquiry: Please let me know the test result on file for CC(C)(C)[Si](C)(C)OCc1ccccc1N1C(=O)C(NC(=O)Cc2ccccc2)C1/C=C/c1ccccc1 (configuration not stated) .
Return: inactive

Enquiry: Hi team, can someone confirm the assay call for Nc1nc(=S)c2ncn(C3CC(O)C(CO)O3)c2[nH]1 (configuration not stated) ?
Return: active

Enquiry: Tell me the recorded outcome of this test for CC[As](CC)SC1CC(OC(=O)c2ccccc2)C(OC(=O)c2ccccc2)C(COC(=O)c2ccccc2)O1 (configuration not stated) .
Return: inactive

Enquiry: Field: outcome | Entry: "O=C(CI)NCCNc1cccc2c(S(=O)(=O)O)cccc12"
Return: inactive

Enquiry: How did this test come out for "CCCCC(=O)C(=O)c1ccc(O)c(C)c1O" ?
Return: inactive

Enquiry: State the result this test recorded for C/C(=N\O)C(C)(O)C(C)(C)C (configuration not stated) .
Return: inactive

Enquiry: Given "O=C(O)c1cccnn1" , state the outcome it received in this test.
Return: inactive

Enquiry: Given "O=C(Nc1ccc(Cl)c(Cl)c1)n1cnc2ccccc21" , state the outcome it received in this test.
Return: inactive

Enquiry: Short answer needed: outcome of this test for CC(CN=C(CC(=O)c1ccccc1)c1ccccc1)N=C(CC(=O)c1ccccc1)c1ccccc1 (configuration not stated) ?
Return: inactive
